Molecular target: UniProt:P05067
Details: at 20 µM
Description: Inhibition of self-mediated amyloid beta (1 to 42) aggregation (unknown origin) at 20 uM after 48 hrs by thioflavin T fluorescence assay relative to control
Could you please report measured inhibition for the items listed next?
Numbers only, in %.

Here is how some compounds turned out for inhibition.
Oc1ccc(/C=C/c2cc(O)cc(O)c2)cc1 = 69.7
COc1cc(/C=C/c2ccc(NCc3ccccc3OC)cc2)cc(OC)c1 = 6.9
CN(C)c1ccccc1CNc1ccc(/C=C/c2cc(O)cc(O)c2)cc1 = 62.4

For every item in the list below, what is its measured inhibition?
1. O=[N+]([O-])c1ccc(O)c(CNc2ccc(/C=C/c3cc(O)cc(O)c3)cc2)c1
2. COc1cc(/C=C/c2ccc(NCc3cc[nH]c3)cc2)cc(OC)c1
3. CN(C)c1ccc(O)c(CNc2ccc(/C=C/c3cc(O)cc(O)c3)cc2)c1
4. Oc1c(I)cc(Cl)c2cccnc12
5. COc1cc(/C=C/c2ccc(NCc3cc(N(C)C)ccc3O)cc2)cc(OC)c1

1. 71.5
2. 13.6
3. 78.1
4. 37.8
5. 79.5

###

Assay: Permeability of the compound at 100 ug/mL after 10 hrs by PAMPA
Format: ADME
Conditions: read-out: permeability
Could you please report measured Papp at 10 h, 100 ug/mL for the items listed next?
Give bare numbers, in ×10⁻⁶ cm/s.

COc1cc(/C=C/c2ccc(NCc3cc(N(C)C)ccc3O)cc2)cc(OC)c1.Cl = 7.13

Given the entry `CN(C)c1ccc(O)c(CNc2ccc(/C=C/c3cc(O)cc(O)c3)cc2)c1.Cl` , report its measured Papp at 10 h, 100 ug/mL.
2.55

###

This section lists pIC50 readings for Amine oxidase [flavin-containing] B (Homo sapiens).
One number for each entry, as −log10 of the molar value.

COc1cc(/C=C/c2ccc(NCc3cc(N(C)C)ccc3O)cc2)cc(OC)c1 = 4.92

Then there is this molecule:
Given the entry `CN(C)c1ccc(O)c(CNc2ccc(/C=C/c3cc(O)cc(O)c3)cc2)c1` , report its measured pIC50.
4.85

###

Molecular target: Amyloid-beta precursor protein (Homo sapiens, UniProt P05067)
Sequence (P05067 whole entry): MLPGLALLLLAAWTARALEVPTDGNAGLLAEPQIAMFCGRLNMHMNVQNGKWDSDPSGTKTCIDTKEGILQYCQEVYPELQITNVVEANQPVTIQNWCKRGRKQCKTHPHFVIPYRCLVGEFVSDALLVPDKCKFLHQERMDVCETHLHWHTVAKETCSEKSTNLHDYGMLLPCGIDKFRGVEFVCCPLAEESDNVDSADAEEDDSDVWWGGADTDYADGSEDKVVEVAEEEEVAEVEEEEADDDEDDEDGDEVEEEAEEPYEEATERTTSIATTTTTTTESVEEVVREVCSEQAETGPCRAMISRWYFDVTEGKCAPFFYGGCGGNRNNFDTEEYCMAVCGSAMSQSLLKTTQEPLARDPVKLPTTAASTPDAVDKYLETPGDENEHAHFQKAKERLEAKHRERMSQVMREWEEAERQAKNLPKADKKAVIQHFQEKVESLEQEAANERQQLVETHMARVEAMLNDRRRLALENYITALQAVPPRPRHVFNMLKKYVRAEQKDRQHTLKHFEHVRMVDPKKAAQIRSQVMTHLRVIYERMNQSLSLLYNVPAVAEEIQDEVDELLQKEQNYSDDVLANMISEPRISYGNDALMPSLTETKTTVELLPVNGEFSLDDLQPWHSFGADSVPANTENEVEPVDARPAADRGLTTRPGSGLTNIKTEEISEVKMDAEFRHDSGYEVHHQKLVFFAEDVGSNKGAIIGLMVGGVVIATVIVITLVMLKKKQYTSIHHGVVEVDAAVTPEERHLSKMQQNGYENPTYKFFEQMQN
EXPERIMENTAL READOUT: IC50 (µM)
Numbers only, in µM.

Here is how some molecules turned out for IC50.
CCCNc1ccc(O)c(CNc2ccc(/C=C/c3cc(OC)cc(OC)c3)cc2)c1 = 13.1
CN(C)c1ccc(O)c(CNc2ccc(/C=C/c3cc(O)cc(O)c3)cc2)c1 = 6.51
COc1ccc(/C=C/c2ccc(NCc3cc(N(C)C)ccc3O)cc2)cc1 = 12.2
Oc1cc(O)cc(/C=C/c2ccc(NCc3cccc(O)c3O)cc2)c1 = 7.87
COc1cc(/C=C/c2ccc(NCc3cc(N(C)C)ccc3O)cc2)cc(OC)c1 = 7.56
CN(C)c1ccc(/C=C/c2ccc(NCc3cc(N(C)C)ccc3O)cc2)cc1 = 10.7

Then there is this molecule:
Param readout = IC50; param system = Amyloid-beta precursor protein (Homo sapiens, UniProt P05067); param query = `COc1cc(/C=C/c2ccc(NCc3cc(NCC(C)C)ccc3O)cc2)cc(OC)c1` ; response: value
10.3

###

Target: Cholinesterase (Equus caballus, UniProt P81908)
Sequence (P81908 whole entry): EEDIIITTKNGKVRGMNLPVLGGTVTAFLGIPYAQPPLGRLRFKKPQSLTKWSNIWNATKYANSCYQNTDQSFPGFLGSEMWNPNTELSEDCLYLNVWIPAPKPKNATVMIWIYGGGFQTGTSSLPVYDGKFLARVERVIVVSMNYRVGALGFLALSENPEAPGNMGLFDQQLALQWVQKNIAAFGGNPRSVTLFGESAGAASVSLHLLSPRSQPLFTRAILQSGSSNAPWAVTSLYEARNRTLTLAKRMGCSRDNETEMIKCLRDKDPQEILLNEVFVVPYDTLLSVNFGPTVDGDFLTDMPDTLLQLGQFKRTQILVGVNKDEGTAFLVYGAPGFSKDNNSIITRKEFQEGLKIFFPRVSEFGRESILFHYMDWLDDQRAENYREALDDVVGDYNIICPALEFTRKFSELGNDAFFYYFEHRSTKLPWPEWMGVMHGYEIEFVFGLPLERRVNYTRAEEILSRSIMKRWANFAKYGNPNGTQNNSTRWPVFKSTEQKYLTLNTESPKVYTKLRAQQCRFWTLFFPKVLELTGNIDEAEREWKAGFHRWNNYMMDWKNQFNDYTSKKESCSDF
Assay: Inhibition of equine serum BuChE using butylthiocholine chloride as substrate preincubated for 15 mins followed by substrate addition measured every 1 min by Ellman's method
EXPERIMENTAL READOUT: pIC50
One number for each entry, as −log10 of the molar value.

Given the entry `CN(C)c1ccc(O)c(CNc2ccc(/C=C/c3cc(O)cc(O)c3)cc2)c1` , report its measured pIC50.
4.67

###

Could you please report measured inhibition for the items listed next?
Target: Amyloid-beta precursor protein (Homo sapiens)
Assay: Inhibition of Cu2+-induced amyloid beta (1 to 42) aggregation (unknown origin) at 50 uM after 24 hrs by thioflavin T fluorescence assay relative to untreated control
Write down the value, and be sure its unit follows.

Here is how some molecules turned out for inhibition.
Oc1c(I)cc(Cl)c2cccnc12 = 70.9%
COc1cc(/C=C/c2ccc(NCc3cc(N(C)C)ccc3O)cc2)cc(OC)c1 = 87.5%
CN(C)c1ccc(O)c(CNc2ccc(/C=C/c3cc(O)cc(O)c3)cc2)c1 = 94.2%

Then there is this molecule:
Given the entry `Oc1ccc(/C=C/c2cc(O)cc(O)c2)cc1` , report its measured inhibition.
78.9%

###

Could you please report measured Activity for the items listed next?
Biological target: Amyloid-beta precursor protein (Homo sapiens, UniProt P05067)
Test: Induction of disaggregation of Cu2+-induced amyloid beta (1 to 42) fibril (unknown origin) at 50 uM after 24 hrs by thioflavin T fluorescence assay relative to control
Answers are plain numbers, in %.

COc1cc(/C=C/c2ccc(NCc3cc(N(C)C)ccc3O)cc2)cc(OC)c1 = 88.8
Oc1c(I)cc(Cl)c2cccnc12 = 41
CN(C)c1ccc(O)c(CNc2ccc(/C=C/c3cc(O)cc(O)c3)cc2)c1 = 85.9

Then there is this compound:
Given the entry `Oc1ccc(/C=C/c2cc(O)cc(O)c2)cc1` , report its measured Activity.
86.4

###

Biological target: UniProtKB P05067
Conditions: at 20 µM
Could you please report measured inhibition for the items listed next?
Numbers only, in %.

Here is how some molecules turned out for inhibition.
COc1cc(/C=C/c2ccc(NCc3ccccc3N(C)C)cc2)cc(OC)c1 = 7.17
COc1cc(/C=C/c2ccc(NCc3cc(Cl)ccc3O)cc2)cc(OC)c1 = 31.3
COc1cc(/C=C/c2ccc(NCc3ccccc3O)cc2)cc(OC)c1 = 20.7

Given the entry `CN(C)c1ccc(/C=C/c2ccc(NCc3cc(N(C)C)ccc3O)cc2)cc1` , report its measured inhibition.
69.1
